The values you see were collected from patent US8309685B2.

- testedTarget: HCV NS3/4A protease (UniProt Q9WMX2)
- assayExplanation: Method B: HCV Protease Assay using FRET Methodology
- Parameters: species or system Hepatitis C virus
- testParameters: read-out: Inhibition, Biochemical; Enzyme/Assay: Biochemical
pIC50: −log10 of the molar value.
Please respond with reported pIC50 for every item in the list.

C=C[C@@H]1C[C@]1(NC(=O)[C@@H]1C[C@@H](Oc2cc(-c3ccccc3)nc3cc(OC)ccc23)CN1C(=O)[C@H](CNC(=O)CCl)NC(=O)OC(C)(C)C)C(=O)NS(=O)(=O)c1ccccc1
7.00 to 8.00

Now for the compound whose pIC50 we want.
Fill blank: measured pIC50 of the compound C=C[C@@H]1C[C@]1(NC(=O)[C@@H]1C[C@@H](Oc2cc(-c3ccccc3)nc3cc(OC)ccc23)CN1C(=O)[C@H](CNC(=O)/C=C/C)NC(=O)OC(C)(C)C)C(=O)NS(=O)(=O)c1ccccc1 is ____.
6.00 to 7.00
